tested on: UACC-62 melanoma; experiment: NCI tumour cell line growth inhibition, 48 h
ASSAY_METRIC: log10 of TGI (log10 of the value in µM)
Heads up: the numbers are on a log10 scale; they represent TGI in µM.

Measured log10 of TGI for this entry "Cc1cc(C)n(CC(Cn2nc(C)cc2C)=C(/C(Cl)=C(/Cl)Nc2ccc([N+](=O)[O-])cc2)[N+](=O)[O-])n1" on UACC-62 melanoma: 1.19

Measured log10 of TGI for this entry "O=c1c2c(=NCCN3CCCC3)cc3c(=O)n(CCCN4CCOCC4)c(=O)c4c(-c5ccc(CN6CCCC6)cc5)cc(c(O)n1CCCN1CCOCC1)c2c4-3" on UACC-62 melanoma: -0.62

Measured log10 of TGI for this entry Cc1c(Cl)cccc1NC(=O)C(=O)C(C(=O)c1ccccc1-c1ccccc1)C1OC(=O)c2ccccc21 (centres undefined) on UACC-62 melanoma: 1.57

Measured log10 of TGI for this entry CCOc1cc(C2SCC(=O)N2c2ccc(Oc3ccc(Cl)cc3)c(Cl)c2)ccc1O (centres undefined) on UACC-62 melanoma: 1.48

Measured log10 of TGI for this entry c1ccc(-c2nnn3c2NC2=C(CCCC2)C3c2ccccc2)cc1 (centres undefined) on UACC-62 melanoma: 1.53

====

system: SW-620 colon; experiment: NCI tumour cell line growth inhibition, 48 h
Record form. Attribute: TGI. Fill in for each entry.

Entry "O=C(Cc1ccc(/C=C/C(=O)c2ncc[nH]2)cc1)Nc1ccc(F)cc1" — recorded TGI = 6.78 µM

Entry "CCN(CCCN(C)C)Cc1cc(I)cc(C)c1O" — recorded TGI = 31.9 µM

Entry "COc1ccc(/C=C(/C#N)C(N)=O)c(OC)c1" — recorded TGI = > 100 µM

Entry "Nc1ccc2c(O)cc(=O)[nH]c2n1" — recorded TGI = > 100 µM

Entry "Cc1nc2ccc(Nc3nc(Cl)nc(N4CCOCC4)n3)cc2n1Cc1ccccc1" — recorded TGI = > 100 µM

Entry "Cc1nc([P+](c2ccccc2)(c2ccccc2)c2ccccc2)c(Sc2sc(-c3ccccc3)nc2[P+](c2ccccc2)(c2ccccc2)c2ccccc2)o1" — recorded TGI = 2.85 µM

Entry CC1=CC(=O)C2=C(C)CCC3C(C)C(=O)OC3C12 (stereo unspecified) — recorded TGI = > 100 µM

Entry "CC(C)(C)c1ccc(S(=O)(=O)Oc2ccc3c4c(c(=O)oc3c2)CCCCC4)cc1" — recorded TGI = > 100 µM

Entry "Cn1c(=O)[nH]c2nncnc2c1=O" — recorded TGI = > 625 µM

Entry "OCc1cn(C(c2ccccc2)(c2ccccc2)c2ccccc2)cn1" — recorded TGI = > 100 µM

Entry "Cc1cc(S(=O)(=O)Nc2n[nH]c(Nc3ccc(Cl)cc3)n2)c(S)cc1Cl" — recorded TGI = > 100 µM

Entry COC(=O)CCC(NC(=S)N/N=C(\C)c1cnc2ccccc2n1)C(=O)OC (stereo unspecified) — recorded TGI = > 100 µM

Entry "CC(O)(Cc1ccccc1C#N)Cc1ccccc1C#N" — recorded TGI = > 100 µM

Entry CC(NC(=O)/C(=C/c1ccccc1)NC(=O)c1ccccc1)C(=O)O (stereo unspecified) — recorded TGI = > 100 µM

Entry Cc1cc2c(c(C=Nc3ccccc3O)c1)OC1(C=C2)Oc2ccccc2C(=O)N1C (stereo unspecified) — recorded TGI = 86.7 µM

Entry "CC(C)=CCC[C@]1(C)C=Cc2c(O)c3c(c(CC=C(C)C)c2O1)O[C@]12C(=C[C@@H]4CC1C(C)(C)O[C@@]2(C/C=C(/C)C(=O)O)C4=O)C3=O" — recorded TGI = 2.89 µM

Entry "COC(=O)/C=C1\C(=O)N(C(C)=O)c2ccc(Br)cc21" — recorded TGI = 25.9 µM

Entry "Cc1cc(O)c(=O)cc2c1C[C@H]1CC(C)(C)/C=C/C[C@]3(C)Oc4cc(=O)c(O)cc(C)c4C[C@H]3C[C@H](O)[C@@]1(C)O2" — recorded TGI = > 100 µM

Entry N=C1OC(CN2CCN(c3ccccc3)CC2)CN1C(=S)Nc1ccccc1 (stereo unspecified) — recorded TGI = > 100 µM

Entry "C=CCn1c(-c2ccc([N+](=O)[O-])cc2)cs/c1=N\C(P(=O)(O)O)P(=O)(O)O" — recorded TGI = > 100 µM

Entry NC(Cc1ccc(OCc2ccccc2)cn1)C(=O)O (stereo unspecified) — recorded TGI = > 100 µM

====

system: OVCAR-8 ovarian; test: NCI tumour cell line growth inhibition, 48 h
ASSAY_METRIC: TGI

Entry "c1cc(NNc2cccc(-c3nn[nH]n3)c2)cc(-c2nn[nH]n2)c1" — recorded TGI = > 100 µM

Entry "CC(O)(Cc1ccccc1C#N)Cc1ccccc1C#N" — recorded TGI = > 100 µM

Entry "CC(C)(C)OC(=O)n1c2ccccc2c2c(=O)nc(N3CCCCC3)sc21" — recorded TGI = > 100 µM

Entry "CN(C)c1ccc(C=Nc2ccc(Oc3ccc(Cl)cc3)c(Cl)c2)cc1" — recorded TGI = 36.8 µM

Entry "O=C(O[C@@H](/C=C/c1ccccc1)P1(=O)N(Cc2ccccc2)[C@H]2CCCC[C@@H]2N1Cc1ccccc1)c1ccccc1" — recorded TGI = > 100 µM

====

test system: SF-539 CNS; experiment: NCI tumour cell line growth inhibition, 48 h
Record form. Attribute: TGI. Fill in for each entry.

Entry "O=C(CSc1nc2ccc([N+](=O)[O-])cc2s1)c1ccc2ccccc2c1" — recorded TGI = > 100 µM

Entry NC(Cc1ccc(OCc2ccccc2)cn1)C(=O)O (configuration not stated) — recorded TGI = > 100 µM

Entry C[N+]1(CCC(=O)c2ccco2)CC2CCC(CC2)C1 (configuration not stated) — recorded TGI = > 100 µM

Entry "CC(C)OP(=O)(OC(C)C)/C(Cl)=N/Nc1ccc([N+](=O)[O-])cc1" — recorded TGI = > 100 µM

Entry N#CC12Cc3cc4c(cc3-c3cccc(c31)CCN2C(=O)c1ccccc1)OCO4 (configuration not stated) — recorded TGI = > 100 µM

Entry CC(=O)O[C@H]1C(=O)[C@@]2(C)C(C(OC(=O)c3ccccc3)[C@]3(O)C[C@H](OC(=O)C(OC(=O)CCCC(=O)NCCCN(C)C)C(NC(=O)c4ccccc4)c4ccccc4)C(C)=C1C3(C)C)C1(OC(C)=O)COC1C[C@@H]2O (some centres not stated) — recorded TGI = 0.0184 µM

Entry "CN(C)c1ccc(C=Nc2ccc(-c3nc4ccccc4[nH]3)cc2)cc1" — recorded TGI = > 100 µM

Entry "CCOC(=O)C(/C(=N/S(=O)(=O)c1cc(C)c(Cl)cc1[S-])[n+]1ccc(N(C)C)cc1)=C(/O)c1ccc([N+](=O)[O-])cc1" — recorded TGI = 53.9 µM

Entry "O=C(O)CN1C=C(C(=O)c2cc3ccccc3n2S(=O)(=O)c2ccccc2)CCC1" — recorded TGI = > 100 µM

Entry "Nc1nc2c3nc(Nc4ccccc4)sc3nc(=S)n2c2sc(Nc3ccccc3)nc12" — recorded TGI = > 100 µM

Entry "COc1ccccc1NC(=S)NN=C(C)c1cccc(C(C)=NNC(=S)Nc2ccccc2OC)n1" — recorded TGI = 62.4 µM

Entry "CC(O)(Cc1ccccc1C#N)Cc1ccccc1C#N" — recorded TGI = > 100 µM

Entry C[C@@H](NC1CCCC[C@H]1O)c1ccccc1 (some centres not stated) — recorded TGI = > 100 µM

Entry "O=C(Nc1ccc2[nH]nc(-c3ccncc3)c2c1)[C@@H]1CCN(CC(=O)N2CCN(c3ccc(-c4ncccn4)cc3)CC2)C1" — recorded TGI = 31.3 µM

Entry CC(ON(C(c1ccccc1)C(C)C)C(C)(C)C)c1ccccc1 (configuration not stated) — recorded TGI = 43.7 µM

Entry "CC(C)c1[nH]nc(C(N)=O)c1N=NN(C)C" — recorded TGI = > 100 µM

Entry COc1ccc(N=Nc2c(C)c(C#N)c(=S)n(C3OC(CO)C(O)C(O)C3O)c2-c2ccccc2)cc1 (configuration not stated) — recorded TGI = > 100 µM

====

system: OVCAR-5 ovarian; experiment: NCI tumour cell line growth inhibition, 48 h; in the data active = GI50 below about 0.43 µM; inactive = the rest
Permitted responses: active, inactive

Problem: For this compound, state the assay outcome: "CC(C)(C)c1ccc(S(=O)(=O)Oc2ccc3c4c(c(=O)oc3c2)CCCCC4)cc1"
Solution: inactive

Problem: For this compound, state the assay outcome: "COc1cc(Nc2nc3cc(N)cc(N)c3nc2-c2ccccc2)cc(OC)c1OC"
Solution: inactive

Problem: For this compound, state the assay outcome: "O=C(Cc1ccc(/C=C/C(=O)c2ncc[nH]2)cc1)Nc1ccc(F)cc1"
Solution: inactive

Problem: For this compound, state the assay outcome: "Cc1cccc(N(C)C(=O)[C@@H]2[C@H](O)CCN2c2nc(C)cc(C(F)(F)F)c2C#N)c1"
Solution: inactive

Problem: For this compound, state the assay outcome: "N.N.N.N.N.[Co+3].[I-].[N-]=[N+]=[N-]"
Solution: inactive

Problem: For this compound, state the assay outcome: "NS(=O)(=O)c1ccc(Nc2cc(-c3cccc(O)c3)[nH]n2)cc1"
Solution: inactive

Problem: For this compound, state the assay outcome: CCCCCCCCCCCCOC1C(CNC(=O)C2OC3OC(C)(C)OC3C2NC(=O)Nc2ccc(CC(=O)OC)cc2)OC2OC(C)(C)OC21 (configuration not stated)
Solution: inactive

Problem: For this compound, state the assay outcome: "COc1cc(/C=C\c2cc(OC)c(OC)c(OC)c2)cc(N/C=C\C(=O)c2ccc(OC(F)(F)F)cc2)c1OC"
Solution: inactive

Problem: For this compound, state the assay outcome: "CCN(Cc1ccc(C)cc1)c1ccc(CO)c(Cl)c1"
Solution: active

Problem: For this compound, state the assay outcome: "O=C(CC(Cl)=C(Cl)Cl)Nc1ccccc1"
Solution: inactive

Problem: For this compound, state the assay outcome: COc1ccc(C2CC(c3cccc(Nc4ccnc5cc(Cl)ccc45)c3)=NN2C=O)cc1 (configuration not stated)
Solution: inactive

Problem: For this compound, state the assay outcome: "Cc1nc([P+](c2ccccc2)(c2ccccc2)c2ccccc2)c(Sc2sc(-c3ccccc3)nc2[P+](c2ccccc2)(c2ccccc2)c2ccccc2)o1"
Solution: inactive

Problem: For this compound, state the assay outcome: C=C1CC[C@@H]2[C@](C)(COC(C)=O)[C@H](OC(C)=O)CC[C@@]2(C)[C@@H]1CC(Nc1ccc(S(=O)(=O)NC(C)=O)cc1)C1=CCOC1=O (some centres not stated)
Solution: inactive

Problem: For this compound, state the assay outcome: CCN1C(=S)N(c2ccccc2)C2NC(=S)N(/N=C/C=C/c3ccccc3OC)C21 (configuration not stated)
Solution: inactive

Problem: For this compound, state the assay outcome: "COc1ccc(/C=C/C(=O)c2cc(OC)c(OC)c(OC)c2)cc1OCC(=O)Nc1nc2ccc(OC(F)(F)F)cc2s1"
Solution: inactive

Problem: For this compound, state the assay outcome: "O=C(Oc1cccc2cccnc12)c1cc2c(cc1Cl)SC(N(c1ccc(F)cc1)S(=O)(=O)c1ccc(Br)s1)=NS2(=O)=O"
Solution: inactive

Problem: For this compound, state the assay outcome: "CCN(CC)c1ccc(/C=N/NC(=O)CSc2nc3ccccc3c(=O)n2CCc2ccc(S(N)(=O)=O)cc2)c(O)c1"
Solution: inactive

Values compiled from PubChem BioAssay (NCI).
